Give measured inhibition for each item. Keep answers brief.
Target: Eukaryotic translation initiation factor 4H (Homo sapiens) (UniProt Q15056)
Test: human eIF4H binding inhibitors, primary screen, translation initiation inhibitor project, biochemical, uHTS, fluorescence polarization (AID 2012);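 also: calls also rest on retests at 20 µM and on dose response follow-up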
Settings: eIF4H fluorescence polarization binding assay; at 35 µM; hits give high values
In all, about 290,000 compounds went through this assay and about 2,700 (0.93%) were called active. The sample as a whole holds a higher share of actives than the screen did.
Value expressed in %; do not type the unit.

Query string: Param item = COc1ccc(NS(=O)(=O)c2cc(NC(=O)/C=C/c3cc(OC)c(OC)c(OC)c3)ccc2N2CCCCC2)cc1 ; retrieve measured inhibition.
Result string: -7.6

Query string: Quick one: inhibition for O=C(CNC(=O)c1ccc(Br)o1)NCC1CCCO1 (stereo not drawn) ?
Result string: -11.8

Query string: Given the molecule O=C(c1cccs1)N(C(=O)c1cccs1)c1ccccn1 , what is its reported inhibition?
Result string: -8.6

Query string: Could you tell me which inhibition is on file for Cc1ccc(CS(=O)(=O)CCC(=O)NCc2ccc(F)cc2)cc1 ?
Result string: -4.5

Query string: // query inhibition value for entry Cc1ccc(C2Nc3cccc4cccc(c34)N2)cc1
Result string: 41

Query string: inhibition for Cc1ccc(NC(=S)Nc2ccc(F)cc2)cc1 ?
Result string: -11.3

Query string: Looking for the measured inhibition of COc1ccc(N2C(=O)C3CCCN3C2c2cccc(OC)c2)cc1 (stereo not drawn) , can you help?
Result string: -6.3

Query string: Entry CC(C)CC(O)C1CCN(C(=O)CCc2nnc(-c3ccc4c(c3)OCO4)o2)CC1 (stereo not drawn) has what inhibition?
Result string: 11.1

Query string: Item under review: CC1CN(C(=O)CCC(=O)NCCCN2CCC(Cc3ccccc3)CC2)c2cc(Cl)ccc2O1 (stereo not drawn) . Reported inhibition?
Result string: 6

Query string: Consider the molecule shown here: Cc1ccccc1NC(=O)CN1C(=O)N/C(=C\c2cccn2-c2cccc(C(=O)O)c2)C1=O What is its recorded inhibition?
Result string: 89.1

Query string: inhibition for O=C(Nc1ccccc1)C1CCN(C(=O)c2ccc(Br)cc2)CC1 ?
Result string: -11

Query string: Data request, read-out inhibition, for COc1ccc(NS(=O)(=O)c2ccc(N3CCOCC3)c(NC(=O)c3ccccc3Br)c2)cc1
Result string: -4.7

Query string: Recorded inhibition for Cn1cccc1/C=C1\SC(=O)N(CC(=O)Nc2ccc(F)cc2)C1=O , please?
Result string: 1.6

Query string: I am curious: what inhibition value has been reported for N#CC1=C(N)C(C#N)(C#N)[C@H](c2ccsc2)[C@H]2COCC=C12 ?
Result string: 113

Query string: Field request: inhibition | item: Cc1c(C)c(C)c2[nH]c(=S)[nH]c2c1C
Result string: -4.2

Query string: For Oc1ccc(C2Nc3cccc4cccc(c34)N2)cc1 , what is its reported inhibition?
Result string: 97.3

Query string: Entry CCOC(=O)C1=C(C)NC(=S)NC1c1cccs1 (stereo not drawn) : reported inhibition = ?
Result string: -5

Query string: Report inhibition for O=C(c1ccc(Br)o1)N(c1ccccn1)C1CCCCC1 please.
Result string: 55.5

Query string: Please give the measured inhibition for this molecule: CCOC(=O)N1CC=C2C(C#N)=C(N)C(C#N)(C#N)[C@H](c3cccs3)[C@H]2C1
Result string: 63.3

Query string: Would you mind telling me what inhibition value was observed for Oc1cccc(/C=N/Nc2ccc(Cl)nn2)c1O ?
Result string: 24.2

Query string: Suppose we examine the molecule N#Cc1ccccc1CN1C(=O)S/C(=C/c2cccn2-c2cccc(C(=O)O)c2)C1=O ; what inhibition value has been reported?
Result string: 81.6

Query string: Quick one: inhibition of Cc1cc(=O)[nH]c(=S)[nH]1 ?
Result string: 2.4

Query string: Please give the measured inhibition for this molecule: CS(=O)(=O)C1=NN2C(=N)/C(=C\c3ccc(OCCOc4ccccc4)cc3)C(=O)N=C2S1
Result string: 16.1
